Catalogue of viability at 72 h values
- Assay Procedure: Cytotoxicity against Escherichia coli WP2 (trpE65 deltauvrA) assessed as cell viability up to 10 to 300 ug/mL after 72 hrs in presence of 1700 ug/plate methyl methane sulfonate
- Format: organism-based
- Condition Set: Escherichia coli WP2 (trpE65 deltauvrA) cells, read-out: Activity
Entry rule: numbers only, all in %.

# Molecule, viability at 72 h [%]
records = [
    ("CC(C)/C(=N/OS(=O)(=O)O)S[C@@H]1O[C@H](CO)[C@@H](O)[C@H](O)[C@H]1O", 82),
]

I'd like to know its viability at 72 h. The molecule in question is CC(C)N=C=S [ISOPROPYL ISOTHIOCYANATE]
82

----------
Catalogue of viability at 72 h values
- Assay Procedure: Cytotoxicity against Escherichia coli WP2 (trpE65) assessed as cell viability up to 10 to 300 ug/mL after 72 hrs in presence of 25 ug/plate 2-aminoanthracene and metabolic activation system S9
- Format: ADME, organism-based
- Condition Set: read-out: Activity
Entry format: amount then unit.

# Compound, viability at 72 h
records = [
    ("CC(C)N=C=S [ISOPROPYL ISOTHIOCYANATE]", "77%"),
]

I'd like to know its viability at 72 h. The compound in question is CC(C)/C(=N/OS(=O)(=O)O)S[C@@H]1O[C@H](CO)[C@@H](O)[C@H](O)[C@H]1O [GLUCOPUTRANJIVIN]
77%

----------
Catalogue of viability at 72 h values
- Assay Procedure: Cytotoxicity against Escherichia coli WP2 (trpE65) assessed as cell viability up to 10 to 300 ug/mL after 72 hrs in presence of 1700 ug/plate methyl methane sulfonate
- Type: organism-based
- Condition Set: Escherichia coli WP2 (trpE65) cells, read-out: Activity
Entry format: amount then unit.

# Compound, Reported Endpoint, Result
rows = [
    ("CC(C)N=C=S [ISOPROPYL ISOTHIOCYANATE]", "viability at 72 h", "80%"),
]

I'd like to know its viability at 72 h. The compound in question is CC(C)/C(=N/OS(=O)(=O)O)S[C@@H]1O[C@H](CO)[C@@H](O)[C@H](O)[C@H]1O
80%

----------
- Assay Procedure: Cytotoxicity against Escherichia coli WP2 (trpE65 deltauvrA) assessed as cell viability up to 10 to 300 ug/mL after 72 hrs in presence of 25 ug/plate 2-aminofluorene and metabolic activation system S9
- Assay type: ADME, organism-based
- Condition Set: read-out: Activity
Reported Endpoint: viability at 72 h (%)
Entry rule: numbers only, all in %.

# Compound, Number
measured = [
    ("CC(C)N=C=S [ISOPROPYL ISOTHIOCYANATE]", 77),
]

From here, focus on the item given below.
I'd like to know its viability at 72 h. The compound in question is CC(C)/C(=N/OS(=O)(=O)O)S[C@@H]1O[C@H](CO)[C@@H](O)[C@H](O)[C@H]1O
77

----------
Catalogue of viability at 72 h values
- Assay Procedure: Cytotoxicity against Escherichia coli WP2 (trpE65 deltauvrApKM101) assessed as cell viability up to 10 to 300 ug/mL after 72 hrs in presence of 1700 ug/plate methyl methane sulfonate
- Assay type: organism-based
- Condition Set: Escherichia coli WP2 (trpE65 deltauvrApKM101) cells, read-out: Activity
Entry rule: numbers only, all in %.

# Molecule, Number
rows = [
    ("CC(C)N=C=S [ISOPROPYL ISOTHIOCYANATE]", 80),
]

I'd like to know its viability at 72 h. The molecule in question is CC(C)/C(=N/OS(=O)(=O)O)S[C@@H]1O[C@H](CO)[C@@H](O)[C@H](O)[C@H]1O [GLUCOPUTRANJIVIN]
80
